Assay: Pharmacokinetics of tonabersat after single and multiple dosing, 240 to 400 mg, fasted and fed (MAD and DDI parts)
Format: in vivo, human
Details: human, in vivo, oral, after single dosing; read-out: geometric mean t1/2
Description: In some embodiments, a connexin hemichannel modulator (e.g., a connexin 43 hemichannel modulator) is provided in an amount to achieve and/or to maintain a steady state amount over a desired period of time, including some or part of a dosing regimen for use in addressing one or more signs or symptom of a post-acute infection syndrome, disorder, disease or condition. […]
Parameter: half-life

**Query** # half-life lookup, item CC(=O)c1ccc2c(c1)[C@H](NC(=O)c1ccc(F)c(Cl)c1)[C@H](O)C(C)(C)O2
**Result** 28.9 to 37.8 h
